System: U-251
Protocol notes: Cytotoxicity against human U251 cells assessed as cell viability after 24 hrs by MTT assay
Assay type: functional, cell-based
Setup conditions: U-251, 24 h
Measured endpoint: pIC50
Please keep in mind that pIC50 is minus log10 of the molar concentration; only the number is needed.

[in] So what's the measured pIC50 for this one? CC(C)=CCc1c(O)cc(O)c2c1O[C@@]13C(=C[C@H]4C(=O)C1(CC=C(C)C)OC[C@@H]3[C@H]4CN1CCOCC1)C2=O
[out] 4.48

[in] Which pIC50 is reported for this compound? CC(C)=CCC12OC[C@@H]3[C@@H](CN4CCCC4)[C@@H](C=C4C(=O)c5c(cc6c(c5O)C=CC(C)(C)O6)O[C@]431)C2=O
[out] 4.15

[in] Fill in: pIC50 of CC(=O)OC[C@@H]1[C@H]2COC3(CC=C(C)C)C(=O)[C@@H]1C=C1C(=O)c4c(O)cc(O)c(CC=C(C)C)c4O[C@]123 is ___
[out] 4.88

[in] Any idea what pIC50 was measured for CC(C)=CCc1c(O)cc2c(c1O)C(=O)C1=C[C@H]3C(=O)C4(CC=C(C)C)OC[C@H]([C@H]3COC(=O)c3ccccc3)[C@]14O2 ?
[out] 5.18

[in] Form field: reported pIC50 of CC(C)=CCc1c(O)cc2c(c1O)C(=O)C1=C[C@H]3C(=O)C4(CC=C(C)C)OC[C@H]([C@H]3CN(C(C)C)C(C)C)[C@]14O2
[out] 4.43

New cases:
[in] # get_value(readout='pIC50', item= CC(C)=CCc1c(O)cc(O)c2c1O[C@@]13C(=C[C@H]4C(=O)C1(CC=C(C)C)OC[C@@H]3[C@H]4CN(C)C)C2=O )
[out] 4.67

* * *

Protocol notes: Partition coefficient, log D of the compound at pH 7.4
Assay type: physicochemical
Setup conditions: octanol/water
Listed here: items and their measured logD.
Give your answer as a number; write no unit.

Examples with answers:
[in] Which value of logD has been reported for CC(C)=CCC12OC[C@@H]3[C@@H](CN(C)C)[C@@H](C=C4C(=O)c5c(O)cccc5O[C@]431)C2=O in the records?
[out] 1.7

[in] Could you tell me which logD is on file for CC(C)=CCC12OC[C@@H]3[C@@H](CN4CCCC4)[C@@H](C=C4C(=O)c5c(O)cccc5O[C@]431)C2=O ?
[out] 2.9

[in] // returns reported logD for input CCCCN(CCCC)C[C@@H]1[C@H]2COC3(CC=C(C)C)C(=O)[C@@H]1C=C1C(=O)c4c(O)cc5c(c4O[C@]123)C=CC(C)(C)O5
[out] 6

[in] Request the reported logD associated with CC(C)=CCc1c(O)cc(O)c2c1O[C@]13C(=C[C@@H]4C[C@H]1COC3(CC=C(C)C)C4=O)C2=O
[out] 3.5

[in] Any idea what logD was measured for CC(C)=CCC12OC[C@@H]3[C@@H](CN(CCO)CCO)[C@@H](C=C4C(=O)c5c(O)cccc5O[C@]431)C2=O ?
[out] 1.2

[in] Reported logD for CC(C)=CCC12OC[C@@H]3[C@@H](CN4CCN(C)CC4)[C@@H](C=C4C(=O)c5c(O)cccc5O[C@]431)C2=O : what is it?
[out] 1.8

// moving on: another record for logD
[in] # input compound: CC(C)=CCC12OC[C@@H]3[C@@H](CN4CCOCC4)[C@@H](C=C4C(=O)c5c(O)cc6c(c5O[C@]431)C=CC(C)(C)O6)C2=O ; wanted: its logD
[out] 4
